# Test system: MS2 coat protein
# Protocol Details: apparent KD of MS2 coat protein; designed switch direction (-1 OFF switch, 1 ON switch): -1; higher = weaker reporter binding
# Run Parameters: Eterna round: R95; input ligand: none
# Lookup of reported apparent KD of MS2 coat protein keyed by entry
Result Type: apparent KD of MS2 coat protein (nM)

* CCUUUGUCAGGAUAUCAGAACGCGCUCGAAAGGAACGCAAAUGAGAAGGGACAUGAGGAUCACCCAUGUAAAGA [Enenrixe] (puzzle: Exclusion 4) | 45
* GCAAUGAGUGUGAGGAUAUGCUGGUCCUUGGAUCAGCAGAAGGCACAUGAGGAUCACCCAUGUGAAAACAUUGC [Mat - Exclusion 4 - JL Mod - D63] (puzzle: Brourd's mod of Exclusion 4) | 23.1
* UUUAAUUUUUUUUUUUUACAAGCUUUUUGCUCGUCUUAUACAUGAGGAUCACCCAUGUAGGUGGAGGAUAAAUUAUC [JMF 36] (puzzle: Sensor v3, turn-off variant 2) | 25.5
* AUAAUAAUAUAGGAUAUCGAAUUAAUUAUUUAACGAGAAGGAUGAACAUGAGGAUCACCCAUGUGGUAUCAUGG [Mat - Exclusion 6 - JL Mod - D34] (puzzle: Exclusion 6) | 317
* AAAGAAGAGAGAAAACAACACAUGAGGAUCACCCAUGUGAGAAGAUGAGGGUGAUACAGGCUAUAUGCUCGUCUUAU (puzzle: Sensor v3, turn-off variant 1) | 52.4
* GUGGAGUAAGGAUAUACAUGAGGAUCACCCAUGUAAGGGAAGGUGAUGGGAGUAGAUAGUAGAAGGUACGAGGA [JR_Exclu3_Sub067] (puzzle: Exclusion 3) | 100
* AAAAUGCAAGGAUAUACAUAGAUCCGACCUACUUAAAACAAACAUGAGGAUCACCCAUGUAGAAGGUGCCAAAA [Raxerebiti] (puzzle: Exclusion 2) | 25.5
* AGAAAUGCCCAUGGCCACAAGCUCUUUGCUUGUCUUACUACAUGAGGAUCACCCAUGUAACAUGGGCUCCUGAUAAU [Been] (puzzle: Sensor v3, turn-off variant 2) | 11.3
* AAGUACCGUCACGAUAGUGAUGGUACAACAAGCAAGUGUACAUGAGGAUCACCCAUGUCCUCUUUUGCUCGUCUUAU [Sensor 3 - 95] (puzzle: Sensor v3, turn-off variant 2) | 18.6
* GCCAGAGCAGGAUAUCUAAUAUCUCACAUGAGGAUCACCCAUGUCUAGCGAAAGCUAGAGGGAGAAGGGCUCUGGC [Mat - Exclusion 5 - Eli mod - D93] (puzzle: Exclusion 5) | 41.6
* GUGUAACUACACGGGCUCAACAUGAGGAUCACCCAUGUCAUACACGCAAGCUCUUUGCUUGUCUUAUCUGUCCGUGA [Erriusti] (puzzle: Sensor v3, turn-off variant 1) | 14.5

====

Item-by-item account of apparent KD of K4 kissing-loop reporter
# System: K4 kissing-loop RNA reporter;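 note: bound reporter read as fluorescence of individual clusters on recovered sequencing chips by microscopy, with normalized cluster intensities fitted with a binding model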
# Protocol Details: apparent KD of K4 kissing-loop reporter; higher = weaker reporter binding
# Run Parameters: Eterna round: R107; input ligand: none
Result Type: apparent KD of K4 kissing-loop reporter

* AACUGUCAAGGACAACAUUACUGAGGUGAUACCAGCAUCGAAAGAUGCCCUUGGCAGCACUGACUUGCAGUGAUGUUGCAAGUAA [BrourdMod 8 - Jieux - Exclusion - Theophylline A] | 0.199 µM
* UGAGUUAGACAAAAGUCUAGCUCUGGUGAAGGAGCGUCCGAAAGGACAGGUAGGUCGCACCACCUGAGUGAUGUUCAGAAUCCUU [KL-SSArg-A22] | 0.789 µM
* AGUAUGGCAACAUUGCAAGUAGCCGUACCACGAGGACCGGUACGGCCGCCACUCGAUAACUUGCAGUGAUGUUGCAAGUAAGAAU [(T)''-(K)'-(T)'-(T1)-(T2)-(K1)-(K2)_Design4] | 0.227 µM
* UGUGUUUACCUGACCCAGUGAUGUUGGGAAGGAGCGUGCGAAAGCACAGGUAGGUCGCUCAACCUAAAGUCAGGUGAGCACUAAA [#SwitchBubble 9 #K4Early] | 0.447 µM
* AUAGGAGUGAUGUUCCUUAGUUUCUCCGAUACCAGUAUGGAAACAUACCCUUGGCAGCGGGAAACCGCAGAUUAGGAAACUAGUC [Theophylline A K4 6] | 0.21 µM
* AGUGAUGUUGAGUUAUCUUAGUGAAGUGAUCGAGGACCGGUACGGCCGCCACUCGAGUGAUGAGUGAGUGAUGUUUGUUUAGGGA [llkmullin] | 0.897 µM
* GCAGUGAUGUUGCACGAGUAGGGUAGAGUACGAGGACCGGUACGGCCGCCACUCGUACGGAACUCGCUAAUUUAUGGAAUGGUGA [I] | 0.752 µM
* GGUAGCAUGGCGGCCGCCACUUACUUCAAUAGGAGUGAUGUUCCUAUUACUAGUAGUGAAAUAAUAAGGACCGGGCCAUGCUACC | 0.0952 µM
* CCCAGUGAUGUUGGUUAAUAUAUUGAUUAACGAGGACCGGUACGGCCGCCACUCGAUAUUUCUAUAAUUAAAAGUUUUGUUUAAA [JR_SSTryptoA_Sub001] | 0.435 µM
* CGUGAGGACCAGAGGUGAUGUAUAGUAUCGCGAGGACCGGUACGGCCGCCACUCGUGAAGAGAAAGGAGUGAUGUUCCGUAAUGG [Kazoo C10] | 0.304 µM
* AAGCAGUCCCUUGUAGUCAUCGAAGAUGAACGAGGACCGGUACGGCCGCCACUCGGAGUGAUGUUCCGAAGGCUGCAAAAUAAAA [MatMod 19 - Jieux - Exclusion - Tryptophan A] | 0.135 µM
* UUUUUAUAAGAGGAUACCAGUACAAAUAAAGUACAUUAAUAGUAGAGUGAUGUUCUAAAGUACCCUUGGCAGCUUAGAUUAAGUU [ExTheophylB.D] | 0.172 µM

====

# System: MS2 coat protein
# Protocol Details: apparent KD of MS2 coat protein; designed switch direction (-1 OFF switch, 1 ON switch): -1; higher = weaker reporter binding
# Run Parameters: input ligand: none
Result Type: apparent KD of MS2 coat protein (nM)

- UAUUAACAAGCGAGAUCCUACAUGAGGAUCACCCAUGUGCUCGUCUUAUAAGGUACUGUGACGAAAGUCACGGUACC [Eli 91 v37] (Eterna round: R97, puzzle: Sensor, turn-off variant 1): 21
- GCACCGUCAGGAUAUACAUGAGGAUCACCCAUGUGACCACCACUGUUCAUGACGCAUUGUAGAAGGGACGGAAA [Eternabot (L2) Solution 47] (Eterna round: R97, puzzle: Exclusion 3): 54.7
- GCUAGAGCAGGAUAUUUAGAUCCUCACAUGAGGAUCACCCAUGUGGUCGAAAGACUAAGAAGAGAAGGGCUCUAGC [Omei Ex5 E21] (Eterna round: R97, puzzle: Exclusion 5): 944
- UACAUGAGGAUCACCCAUGUUUUGUCGUGUAUGGUAUUUAUCUAGGAUAUCACGUUAUUUAUUUAUGAGAAGGAGAAUAUUAAU [JMF's solution 26] (Eterna round: R96, puzzle: Exclusion NG 3): 39
- GUCACAUGGACAUAGGAUCACAUGAGGAUCACCCAUGUGACUAACAAGCUUUUUGCUCGUCUUAUGUCUAUGUGAAG [Stov1/16-A3] (Eterna round: R97, puzzle: Sensor, turn-off variant 1): 12.4

====

# System: MS2 coat protein
# Protocol Details: apparent KD of MS2 coat protein; designed switch direction (-1 OFF switch, 1 ON switch): -1; higher = weaker reporter binding
# Run Parameters: input ligand: microRNA oligo, concentration not stated
# apparent KD of MS2 coat protein listing for each entry below
Result Type: apparent KD of MS2 coat protein (nM)

- AAUCGAUCGCCGUACGCACACAUGAGGAUCACCCAUGUAGCUGAGGAUAUCCACCCAUAACGGUCGGAGAAGGCGGGACUGGGA [Eraananbi] (Eterna round: R96, puzzle: Exclusion NG 3): 11.3
- GUUGUUUAUGUAGGAUAUGCCUGGCGAGCCUAAGCAGAAGGACAUGAGGAUCACCCAUGUAUUGCGGUCUGCGUUCAGAUCGCU [salish99_ExNG1_r4_018] (Eterna round: R96, puzzle: Exclusion NG 1): 9.94
- GGGUGACAGUUAGGAUAUCUUAGCACGCCGUAGAGAGAAGGGACAUGAGGAUCACCCAUGUUGUAGUGCCUCCAGCACUGCUAG [Esrasoce] (Eterna round: R96, puzzle: Exclusion NG 1): 34
- GGUCAGAUGGUAGGAUAUCCAUAUCGAGUGACCCUUUCAUAACAUGAGGAUCACCCAUGUUGGUGGGAGAAGGGCCGUACGGCG [salish99_ExNG02_R04_019] (Eterna round: R96, puzzle: Exclusion NG 2): 14.4
- GAUUUUCAUGUAGGAUAUUCCACACAACAACUGGGAGAAGGACAUGAGGAUCACCCAUGUCCUACAACAACUUCAACAAACACA [Weak Sauce] (Eterna round: R96, puzzle: Exclusion NG 1): 9.75
- AUAAAACGUGUAGGAUAUGCGUGGCGAAGCUAUGCAGAAGGACAUGAGGAUCACCCAUGUUCUAGCGUCUGCGUACAGAUGCUA [JL eng1 1.35 mod 4] (Eterna round: R96, puzzle: Exclusion NG 1): 10.9
- AGGGUAAAGUUAGGAUAUGCGAAUAAUCCAGACGCAGAAGGAACAGGUCGCAUGUGAGUCACAUGAGGAUCACCCAUGUAACUA [Ceissoar] (Eterna round: R96, puzzle: Exclusion NG 1): 29.6
- AUAUUUAAUAUAGGAUAUAGGAAGAAUGAUGAACUAGAAGGAUAACAUACAUGAGGAUCACCCAUGUCCCAUGUGAUCACCCAU [Seems to work in some way] (Eterna round: R96, puzzle: Exclusion NG 1): 257
- ACAUCACAGCUAGGAUAUAGAUGACAUGAGGAUCACCCAUGUUAUCCCAUGUUGACGGAAACCGACUAGAAGGAGCUACAGAUG [Ex NG2 #7] (Eterna round: R96, puzzle: Exclusion NG 2): 41.8
